experiment: qHTS of pediatric cancer cell lines to identify multiple opportunities for drug repurposing: Primary screen for NB1643 cells (AID 1347099); conditions: NB1643 neuroblastoma viability, CellTiter-Glo luminescence, 48 h; series mostly up to 46 µM; note: nearly all actives have a fitted effect of over 50% in size
Inconclusive results are not listed. Activity calls are given as the source filed them. Calls come from the whole dose curve; as a rule, active = well fitted cell-killing curve with a large enough effect; inconclusive = small, poorly fitted or top-dose-only effect; inactive = no such curve, though single readings can be large or run the other way.
Classes to choose from: active, inactive

Enquiry: Give the logged outcome of this assay for the following compound: CC1(CN2CCC(n3c(=O)[nH]c4ccccc43)CC2)OCc2ccccc2-n2cccc21 (stereo not given)
Return: inactive

Enquiry: Ok, now NCCCCCC(=O)O
Return: inactive

Enquiry: Ok, now Nc1nc2c(ncn2COC(CO)CO)c(=O)[nH]1
Return: inactive

Enquiry: Ok, now O=C(C1CCCCC1)N1CC(=O)N2CCc3ccccc3C2C1 (stereo not given)
Return: inactive

Enquiry: Ok, now NC12CC3CC(CC(C3)C1)C2
Return: inactive

Enquiry: Ok, now NCCc1cnc[nH]1
Return: inactive

Enquiry: Ok, now Cc1ccc(C(=O)Nc2ccc(S(=O)(=O)O)c3cc(S(=O)(=O)O)cc(S(=O)(=O)O)c23)cc1NC(=O)c1cccc(NC(=O)Nc2cccc(C(=O)Nc3cc(C(=O)Nc4ccc(S(=O)(=O)O)c5cc(S(=O)(=O)O)cc(S(=O)(=O)O)c45)ccc3C)c2)c1
Return: inactive

Enquiry: Ok, now CCCNCC(O)COc1ccccc1C(=O)CCc1ccccc1 (stereo not given)
Return: inactive

Enquiry: Ok, now CC(C)NCC(O)COc1ccc(CCOCC2CC2)cc1 (stereo not given)
Return: inactive

Enquiry: Ok, now CN(C)C(=O)C(CCN1CCC(O)(c2ccc(Cl)cc2)CC1)(c1ccccc1)c1ccccc1
Return: active

###

molecular target: Retinoic acid receptor RXR-alpha (Homo sapiens) (UniProt P19793); assay: qHTS assay for small molecule antagonists of retinoid X receptor alpha signaling (AID 588546); settings: HEK293T RXRa-UAS-bla, beta-lactamase ratio, antagonist mode;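 note: cells stimulated with 9-cis-retinoic acid as agonist; % is set by controls: 0 for no effect and ±100 for the full control effect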
Sequence (P19793 whole entry, looked up): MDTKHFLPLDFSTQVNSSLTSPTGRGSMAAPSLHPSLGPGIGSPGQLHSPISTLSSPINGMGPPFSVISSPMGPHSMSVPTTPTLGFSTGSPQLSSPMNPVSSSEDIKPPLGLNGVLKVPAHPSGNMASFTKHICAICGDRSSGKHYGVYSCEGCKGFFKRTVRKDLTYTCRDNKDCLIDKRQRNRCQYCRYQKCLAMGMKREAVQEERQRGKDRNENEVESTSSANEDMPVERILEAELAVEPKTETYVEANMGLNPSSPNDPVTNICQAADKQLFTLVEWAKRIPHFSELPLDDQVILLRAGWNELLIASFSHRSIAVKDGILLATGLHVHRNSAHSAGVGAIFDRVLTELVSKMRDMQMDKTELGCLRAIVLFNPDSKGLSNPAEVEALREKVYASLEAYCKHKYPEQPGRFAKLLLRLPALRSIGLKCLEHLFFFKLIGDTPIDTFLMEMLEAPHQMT
Records with an inconclusive call do not appear.
Would you mind telling me the reported max response of each entry?
Express it in %; write the number only.

Enquiry: Record lookup: for Retinoic acid receptor RXR-alpha (Homo sapiens) (UniProt P19793), what max response belongs to N[C@@H](Cc1c[nH]c2ccc(O)cc12)C(=O)O ?
Return: 3.1

Enquiry: Ok, now CC(C)(Oc1ccc(C2CC2(Cl)Cl)cc1)C(=O)O (centres undefined)
Return: -27.6

Enquiry: Ok, now CCOC(=O)C(C)(C)Oc1ccc(Cl)cc1
Return: 3.43

Enquiry: Ok, now Nc1c2c(nc3ccccc13)CCCC2
Return: -6.99

###

Target: Voltage-gated inwardly rectifying potassium channel KCNH2 (Homo sapiens) (UniProt Q12809)
Sequence (Q12809 whole entry, looked up): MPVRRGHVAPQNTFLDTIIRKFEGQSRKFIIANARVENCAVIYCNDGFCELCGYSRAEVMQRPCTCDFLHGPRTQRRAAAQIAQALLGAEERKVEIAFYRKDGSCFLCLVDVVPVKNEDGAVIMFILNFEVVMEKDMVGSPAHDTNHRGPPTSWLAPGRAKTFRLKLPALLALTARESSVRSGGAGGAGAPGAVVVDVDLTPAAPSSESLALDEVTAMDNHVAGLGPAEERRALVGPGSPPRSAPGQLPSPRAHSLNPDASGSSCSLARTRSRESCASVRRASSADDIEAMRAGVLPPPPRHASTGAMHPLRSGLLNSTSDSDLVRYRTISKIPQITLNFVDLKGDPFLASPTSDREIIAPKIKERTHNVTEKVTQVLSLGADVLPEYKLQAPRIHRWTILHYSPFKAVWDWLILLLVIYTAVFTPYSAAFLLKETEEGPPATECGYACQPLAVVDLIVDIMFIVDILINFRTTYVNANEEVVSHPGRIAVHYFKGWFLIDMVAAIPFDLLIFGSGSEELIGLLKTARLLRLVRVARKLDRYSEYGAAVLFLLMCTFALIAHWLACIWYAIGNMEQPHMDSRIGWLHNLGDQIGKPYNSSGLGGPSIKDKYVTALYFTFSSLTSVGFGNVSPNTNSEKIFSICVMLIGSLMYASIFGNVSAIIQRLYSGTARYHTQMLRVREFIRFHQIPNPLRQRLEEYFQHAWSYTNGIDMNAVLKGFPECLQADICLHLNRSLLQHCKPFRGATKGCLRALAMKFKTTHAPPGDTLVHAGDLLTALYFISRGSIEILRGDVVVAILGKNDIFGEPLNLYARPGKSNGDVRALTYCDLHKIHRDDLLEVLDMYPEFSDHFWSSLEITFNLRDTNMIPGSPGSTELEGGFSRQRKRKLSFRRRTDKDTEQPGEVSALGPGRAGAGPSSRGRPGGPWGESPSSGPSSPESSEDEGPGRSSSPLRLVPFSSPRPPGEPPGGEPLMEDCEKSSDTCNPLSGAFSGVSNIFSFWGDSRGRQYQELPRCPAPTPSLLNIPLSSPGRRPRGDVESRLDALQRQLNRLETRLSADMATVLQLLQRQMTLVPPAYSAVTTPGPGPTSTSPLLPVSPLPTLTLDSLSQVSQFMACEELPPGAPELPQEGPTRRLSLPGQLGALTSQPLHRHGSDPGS
Test: qHTS Assay for Small Molecule Inhibitors of the Human hERG Channel Activity (AID 588834);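 note: lower thallium flux fluorescence means stronger hERG block; nearly all actives have a fitted effect of over 50% in size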; note: potency is the fitted concentration of half-maximal effect
Settings: U2OS BacMam hERG, FluxOR thallium flux fluorescence; series mostly up to 46.1 µM
Method: NIH Chemical Genomics Center [NCGC] National Institutes of Environmental Health Sciences [NIEHS] National Toxicology Program [NTP] We have developed a 1536-well cell-based assay for quantitative high throughput screening (qHTS) to determine in vitro hERG channel blockage as a measure of cardio toxicity with small molecules. […] 13. Read fluorescence Intensity on FDSS for 10 Sec with 1 sec interval […] 15. Read fluorescence Intensity on FDSS for 2 min with 1 sec interval […]
Inconclusive results are not listed. Activity calls are given as the source filed them. Calls follow the shape of the dose curve; as a rule, active = well fitted inhibition curve with a large enough effect; inconclusive = small, poorly fitted or top-dose-only effect; inactive = flat fitted curve, though single readings scatter.
endpoint_name: Potency

Below, 10 compounds whose answers are already recorded.
1. CC12CC3CC(C)(C1)CC(N)(C3)C2 : inactive
2. NC(CO)C(=O)NNCc1ccc(O)c(O)c1O (configuration not stated) : inactive
3. CC1(CN2CCC(n3c(=O)[nH]c4ccccc43)CC2)OCc2ccccc2-n2cccc21 (configuration not stated) : 11.2 µM (active)
4. CCOC(=O)Nc1ccc(NCc2ccc(F)cc2)nc1N : 14.1 µM (active)
5. NCCS(=O)(=O)O : inactive
6. O=c1[nH]cc(F)c(=O)[nH]1 : inactive
7. CN(C)c1nc(N(C)C)nc(N(C)C)n1 : inactive
8. COc1cc2c(c(OC)c1OC)-c1ccc(OC)c(=O)cc1[C@@H](NC(C)=O)CC2 : inactive
9. NS(=O)(=O)c1cc2c(cc1Cl)NCNS2(=O)=O : inactive
10. C[C@H]1c2cccc(O)c2C(O)=C2C(=O)[C@]3(O)C(O)=C(C(N)=O)C(=O)[C@@H](N(C)C)[C@@H]3[C@@H](O)[C@@H]21 : inactive

Enquiry: Record lookup: for Voltage-gated inwardly rectifying potassium channel KCNH2 (Homo sapiens) (UniProt Q12809), what Potency belongs to CCC1(C)CC(=O)NC1=O (configuration not stated) ?
Return: inactive

Enquiry: Ok, now OCCN(CCO)c1nc(N2CCCCC2)c2nc(N(CCO)CCO)nc(N3CCCCC3)c2n1
Return: inactive

###

experiment: qHTS assay for small molecule agonists of the antioxidant response element (ARE) signaling pathway measured by Nrf2-dependant transcriptional activity - cell viability counter screen (AID 720653); details: ARE-bla HepG2 viability, CellTiter-Glo ATP luminescence, 16 h; stronger effect = lower value; note: % is set by controls: 0 for no effect and ±100 for the full control effect
Inconclusive results are not listed. The source made the active and inactive calls. Calls follow the shape of the dose curve; as a rule, active = well fitted cell-killing curve with a large enough effect in the repeat runs; inconclusive = weak or mixed curves; inactive = flat fitted curve, though single readings scatter.
endpoint_name: max response

Enquiry: Would you mind telling me what max response value was observed for N[C@@H](Cc1c[nH]c2ccc(O)cc12)C(=O)O ?
Return: -3.27% (inactive)

Enquiry: Ok, now COc1ccc(CCN(C)CCCC(C#N)(c2ccc(OC)c(OC)c2)C(C)C)cc1OC (stereo not given)
Return: -18% (inactive)

Enquiry: Ok, now NCCS(=O)(=O)O
Return: 5.47% (inactive)

Enquiry: Ok, now Cn1c(=O)c2[nH]cnc2n(C)c1=O
Return: 0.323% (inactive)

Enquiry: Ok, now O=C(CCCN1CCC(O)(c2ccc(Cl)cc2)CC1)c1ccc(F)cc1
Return: -9.04% (inactive)

Enquiry: Ok, now CCOC(=O)C(C)(C)Oc1ccc(Cl)cc1
Return: -4.42% (inactive)

Enquiry: Ok, now CN(C)CCOC(c1ccccc1)c1ccccc1
Return: -12% (inactive)

Enquiry: Ok, now CC#C[C@]1(O)CC[C@H]2[C@@H]3CCC4=CC(=O)CCC4=C3[C@@H](c3ccc(N(C)C)cc3)C[C@@]21C
Return: -29.2% (inactive)

Enquiry: Ok, now O=c1[nH]cc(F)c(=O)[nH]1
Return: -3.42% (inactive)

Enquiry: Ok, now C[C@](N)(Cc1ccc(O)c(O)c1)C(=O)O
Return: -0.408% (inactive)

###

system: AS120; assay: qHTS profiling for inhibitors of Plasmodium falciparum proliferation (AID 504749); note: nearly all actives have a fitted effect of over 60% in size; conditions: P. falciparum in erythrocytes, SYBR Green DNA, 72 h; series mostly up to 28.7 µM
Results filed as inconclusive are left out. The source made the active and inactive calls. Calls come from the whole dose curve; as a rule, active = well fitted inhibition curve with a large enough effect; inconclusive = small, poorly fitted or top-dose-only effect; inactive = flat fitted curve, though single readings scatter.
Classes to choose from: 1 (active), 0 (inactive)

Enquiry: Give the logged outcome of this assay for the following molecule: Cn1cnc2c1c(=O)[nH]c(=O)n2C
Return: 0

Enquiry: Ok, now CS(=O)(=O)Nc1ccc([N+](=O)[O-])cc1Oc1ccccc1
Return: 0

Enquiry: Ok, now NCCCCCC(=O)O
Return: 0

Enquiry: Ok, now Cn1c(=O)c2c(ncn2C)n(C)c1=O
Return: 0

Enquiry: Ok, now O=C1c2c(O)ccc(O)c2C(=O)c2c(NCCNCCO)ccc(NCCNCCO)c21
Return: 1

Enquiry: Ok, now O=c1c(O)c(-c2ccc(O)c(O)c2)oc2cc(O)cc(O)c12
Return: 1

Enquiry: Ok, now CC(C)NCC(O)COc1ccc(CCOCC2CC2)cc1 (centres undefined)
Return: 0

Enquiry: Ok, now Nc1nnc(-c2cccc(Cl)c2Cl)c(N)n1
Return: 0

Enquiry: Ok, now COc1ccc(CCN(C)CCCC(C#N)(c2ccc(OC)c(OC)c2)C(C)C)cc1OC (centres undefined)
Return: 0

###

assay: Drug repurposing screens with cells derived from glioblastoma tumor samples (AID 1345199); settings: GBM patient neurospheres viability, ATP luminescence, 48 h; at 21.3 µM (top of the series); tumour line A; note: % is set by controls: 0 for no effect and ±100 for the full control effect; nearly all actives have a fitted effect of over 40% in size
Results filed as inconclusive are left out.
Would you mind telling me the reported activity, negative = cell killing of each entry?
Express it in %; write the number only.

Enquiry: Would you mind telling me what activity, negative = cell killing value was observed for CN(C)c1nc(N(C)C)nc(N(C)C)n1 ?
Return: -32

Enquiry: Ok, now CS(=O)(=O)Nc1ccc([N+](=O)[O-])cc1Oc1ccccc1
Return: -28.2

Enquiry: Ok, now CN(C)C(=N)N=C(N)N
Return: -0.697

Enquiry: Ok, now COc1ccc(C2CNC(=O)C2)cc1OC1CCCC1 (stereo not given)
Return: -26.3

Enquiry: Ok, now NCCCCCC(=O)O
Return: -27.1

###

assay: Primary qHTS for inhibitors of nuclear receptor binding SET domain protein 2 (NSD2) in an isogenic RCH-ACV NSD2 p.E1099K mutant (9B) (AID 1645876); conditions: RCH-ACV (leukaemia line) NSD2 E1099K (9B) viability, CellTiter-Glo, 72 h; series mostly up to 44.9 µM; note: nearly all actives have a fitted effect of over 70% in size
Records with an inconclusive call do not appear. Active and inactive are the calls of the source. Calls follow the shape of the dose curve; as a rule, active = well fitted inhibition curve with a large enough effect; inconclusive = small, poorly fitted or top-dose-only effect; inactive = flat fitted curve, though single readings scatter.
Classes to choose from: 1 (active), -1 (inactive)

Enquiry: Give the logged outcome of this assay for the following compound: CC#C[C@]1(O)CC[C@H]2[C@@H]3CCC4=CC(=O)CCC4=C3[C@@H](c3ccc(N(C)C)cc3)C[C@@]21C
Return: 1

Enquiry: Ok, now COc1ccc2c(c1)c(CC(=O)O)c(C)n2C(=O)c1ccc(Cl)cc1
Return: -1

Enquiry: Ok, now NC12CC3CC(CC(C3)C1)C2
Return: -1

Enquiry: Ok, now CCCNCC(O)COc1ccccc1C(=O)CCc1ccccc1 (centres undefined)
Return: 1

Enquiry: Ok, now CN(C)CCC=C1c2ccccc2C=Cc2ccccc21
Return: 1

Enquiry: Ok, now Cc1ccccc1N1C(=O)c2cc(S(N)(=O)=O)c(Cl)cc2NC1C (centres undefined)
Return: -1

Enquiry: Ok, now Cc1ccc(C(=O)Nc2ccc(S(=O)(=O)O)c3cc(S(=O)(=O)O)cc(S(=O)(=O)O)c23)cc1NC(=O)c1cccc(NC(=O)Nc2cccc(C(=O)Nc3cc(C(=O)Nc4ccc(S(=O)(=O)O)c5cc(S(=O)(=O)O)cc(S(=O)(=O)O)c45)ccc3C)c2)c1
Return: -1

Enquiry: Ok, now Cn1c(=O)c2[nH]cnc2n(C)c1=O
Return: -1

Enquiry: Ok, now CCOC(=O)Nc1ccc(NCc2ccc(F)cc2)nc1N
Return: -1

Origin of the recorded values: PubChem BioAssay (NCATS)
